Source of measurements: patent US8552024B2

Measured target: human HSL (Homo sapiens)
Construct: overlapping PCR to generate a full length human HSL ORF with a 3′-His6 tag
Sequence (Q05469 whole entry): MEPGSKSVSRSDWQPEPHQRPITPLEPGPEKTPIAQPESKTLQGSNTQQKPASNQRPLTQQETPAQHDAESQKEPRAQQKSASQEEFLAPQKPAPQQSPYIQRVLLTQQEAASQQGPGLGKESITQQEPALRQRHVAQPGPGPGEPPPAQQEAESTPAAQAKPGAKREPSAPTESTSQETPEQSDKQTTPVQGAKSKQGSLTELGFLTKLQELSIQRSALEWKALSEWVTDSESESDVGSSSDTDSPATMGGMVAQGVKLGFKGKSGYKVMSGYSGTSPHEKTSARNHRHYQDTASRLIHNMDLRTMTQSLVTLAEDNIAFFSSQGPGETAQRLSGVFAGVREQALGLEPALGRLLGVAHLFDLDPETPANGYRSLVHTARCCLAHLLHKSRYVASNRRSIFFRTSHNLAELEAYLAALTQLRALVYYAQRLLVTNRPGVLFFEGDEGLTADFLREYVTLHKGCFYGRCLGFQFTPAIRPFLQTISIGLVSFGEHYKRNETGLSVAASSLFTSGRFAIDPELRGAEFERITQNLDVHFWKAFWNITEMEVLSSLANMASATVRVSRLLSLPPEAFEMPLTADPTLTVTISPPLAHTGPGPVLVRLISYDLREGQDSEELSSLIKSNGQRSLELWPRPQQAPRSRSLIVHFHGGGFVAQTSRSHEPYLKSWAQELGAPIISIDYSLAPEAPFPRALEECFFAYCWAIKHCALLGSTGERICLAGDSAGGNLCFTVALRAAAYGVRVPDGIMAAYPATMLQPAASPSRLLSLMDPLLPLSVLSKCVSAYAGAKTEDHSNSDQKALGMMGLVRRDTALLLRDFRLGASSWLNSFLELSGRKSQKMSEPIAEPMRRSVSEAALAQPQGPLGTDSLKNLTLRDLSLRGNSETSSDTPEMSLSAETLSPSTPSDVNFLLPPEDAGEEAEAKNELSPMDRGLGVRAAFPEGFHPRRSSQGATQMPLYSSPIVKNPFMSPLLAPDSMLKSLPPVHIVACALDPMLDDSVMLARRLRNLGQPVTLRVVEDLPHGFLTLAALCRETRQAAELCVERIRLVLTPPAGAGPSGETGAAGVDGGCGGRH
Test summary: Human Hormone-Sensitive Lipase (HSL) enzyme inhibition assay (colorimetric, DMPT substrate)
Conditions: human full length HSL-His6; substrate 2,3-dimercapto-1-propanol tributyrate; 37° C., 20 minutes; absorbance at 405 nm; read-out: HSL hum IC50
Protocol: Production of Human full length Hormone Sensitive Lipase-His^6: 1) Cloning: cDNA was prepared from commercial human brain polyA+ RNA and used as a template in overlapping PCR to generate a full length human HSL ORF with a 3′-His6 tag. […] The protein concentration was calculated from absorbance at 280 nm, using 280=0.67 cm-1 mg-1. […] HSL enzyme activity was measured by a colorimetric assay using 2,3-dimercapto-1-propanol tributyrate (Aldrich, St. Louis, Mo.) as a substrate. […]
pIC50: −log10 of the molar value.
Property: pIC50

I: O=C1N(c2ccc(OC(F)(F)F)cc2)CCC12CCN(c1cccc(O)n1)CC2
II: O=C1N(c2ccc(OC(F)(F)F)cc2)CCC12CCN(c1cccc(OCc3ccccc3)n1)CC2
Query :: Of I and II , which one carries the higher reported pIC50? To answer, give the label that identifies your chosen option.
Result :: I
(I: 6.60, II: 6.05)

1: COc1ccc(C)cc1N1CCC2(CC1)CCN(c1ccc(OC(F)(F)F)cc1)C2=O
2: O=C1N(c2ccc(OC(F)(F)F)cc2)CCC12CCN(c1ccccc1Cl)CC2
Query :: Lower value of pIC50 belongs to which: 1 or 2 ? To answer, give the label that identifies your chosen option.
Result :: 2
(2: 6.15, 1: 7.00)
